System: CD2F1 mice, L1210 leukemia ip, survival T/C
RUN_DESCRIPTION: NCI In Vivo Anticancer Drug Screen. Data for tumor model L1210 Leukemia (intraperitoneal) in CD2F1 (CDF1) mice
DETAILS: endpoint: mean survival time; dose: 200.0 mg/kg/injection; schedule: Q01DX001 (ip); vehicle: saline; higher = longer survival
Toxic doses and inconclusive results are not listed.
QUANTITY_MEASURED: T/C

Recorded T/C, per entry:
COc1ccc2c(c1)C1(C)CCC(=O)C(C)C1CC2 (stereo not drawn) = 96 % of control
O=C1c2ccccc2C(=O)N1OCCCN1C(=O)c2ccccc2S1(=O)=O = 100 % of control
CCN(CCNc1ccc(C)c2sc3cc(Cl)ccc3c(=O)c12)CC(C)O (stereo not drawn) = 94 % of control
O=C1C=CC(=O)O1 (tested in a mixture with another compound) = 117 % of control
CCCCCCCCCCCCCCCCCC(CCCCCCCC)CCCCCCCC = 94 % of control
CCOC(=O)C1CCCNC1=O (stereo not drawn) = 94 % of control
Fc1ccccc1OCC1CO1 (stereo not drawn) = 110 % of control

Could you now consider this next molecule?
Name the recorded T/C for O=S(=O)(O)N=Nc1ccc(OCc2ccccc2)cc1 .
100 % of control

====

Tested on: CD2F1 mice, L1210 leukemia ip, survival T/C
RUN_DESCRIPTION: NCI In Vivo Anticancer Drug Screen. Data for tumor model L1210 Leukemia (intraperitoneal) in CD2F1 (CDF1) mice
DETAILS: endpoint: mean survival time; dose: 100.0 mg/kg/injection; schedule: Q04DX002 (ip); vehicle: saline with Tween-80; higher = longer survival
Toxic doses and inconclusive results are not listed.
Measured T/C, listed per entry for reference.

# input compound: O=C1CCc2ccccc21 (tested in a mixture with another compound) ; wanted: its T/C
101 % of control

Using the record for COc1cc([N+](=O)[O-])ccc1NC(=O)N(c1ccccc1)C(C)C , report its T/C.
96 % of control

# query: T/C of entry O=C(O)CCc1[nH]c2ccccc2c1CC(=O)O
91 % of control

Given the compound CC(=O)SCC1C(=O)n2c(cc3ccccc32)C(=O)N1C (centres undefined) , what is its reported T/C?
96 % of control

====

System: CD2F1 mice, L1210 leukemia ip, survival T/C
RUN_DESCRIPTION: NCI In Vivo Anticancer Drug Screen. Data for tumor model L1210 Leukemia (intraperitoneal) in CD2F1 (CDF1) mice
DETAILS: endpoint: mean survival time; dose: 100.0 mg/kg/injection; schedule: Q04DX003 (ip); vehicle: other; higher = longer survival
Toxic doses and inconclusive results are not listed.
QUANTITY_MEASURED: T/C

Worked examples, 2 compounds total:
CN1CCC(c2ccccc2)c2ccccc21 (stereo not drawn) = 100 % of control
CC(=O)Nc1nc(Br)c2ccccc2c1-c1ccc(N)cc1 = 94 % of control

Now for another entry.
Item CCCCCCCCCCCC(=O)CCCCC has what recorded T/C?
96 % of control

====

Tested on: CD2F1 mice, L1210 leukemia ip, survival T/C
RUN_DESCRIPTION: NCI In Vivo Anticancer Drug Screen. Data for tumor model L1210 Leukemia (intraperitoneal) in CD2F1 (CDF1) mice
DETAILS: endpoint: mean survival time; dose: 12.5 mg/kg/injection; schedule: Q01DX009 (ip); vehicle: saline with Tween-80
Inconclusive results and toxic doses are left out. Rule for the calls: active = survival T/C of 150% or more; inactive = T/C below 125% in these data.
Outcome field: choose from YES for active, NO for inactive

Example entries begin here.
Nc1ncnc2c1ncn2[C@@H](C=O)O[C@@H](C=O)CO = YES
Nc1nc(N)nc(-c2ccncc2)n1 = NO
O=C(N/N=C\c1ccc(F)cc1)N/N=C/c1ccc(F)cc1 = NO
COc1cc(OC)c(OC)cc1/C=C\c1ccc2ccccc2[n+]1C = NO
c1nc(SSc2ncnc3nc[nH]c23)c2[nH]cnc2n1 = YES
Nc1nc(N)c2cc(CCc3ccccc3)ccc2n1 = NO
CNc1cccnc1/C=N/NC(N)=S = NO
O=C(CCCCCCCCC(=O)N/N=C\c1ccccc1O)N/N=C\c1ccccc1O = NO
N#CCCc1ccccc1 = NO
CN1CCC(CN2c3ccccc3Sc3ccccc32)C1 (centres undefined) = NO

We now examine a further molecule.
Called result for CC(C)=CCC/C(C)=C/COc1ccc(/C=C2/C(=O)N(O)[C@@H](C)C(=O)N2O)cc1
NO

====

Tested on: CD2F1 mice, L1210 leukemia ip, survival T/C
RUN_DESCRIPTION: NCI In Vivo Anticancer Drug Screen. Data for tumor model L1210 Leukemia (intraperitoneal) in CD2F1 (CDF1) mice
DETAILS: endpoint: mean survival time; dose: 100.0 mg/kg/injection; schedule: Q04DX002 (ip); vehicle: saline with Tween-80; higher = longer survival
Protocol: The antitumor activity of compounds was measured in mice bearing transplantable tumors. Survival or tumor size were measured and the results are expressed as the measurement made in the treated group (T) divided by the measurement made in the vehicle treated control group (C). The tumor model used in this assay is L1210 Leukemia (intraperitoneal) in CD2F1 (CDF1) mice
Toxic doses and inconclusive results are not listed.
QUANTITY_MEASURED: T/C

NC(=O)C1CC=CCC1 (stereo unspecified) = 94 % of control
COc1ccccc1N=Nc1c(O)n(-c2ccccc2OC)c(=S)n(-c2ccc(Br)cc2)c1=O = 95 % of control
Cc1cc(C)c2nc(N)sc2c1 = 93 % of control
CCC(c1ccc(O)c(CN(CC)CC)c1)C(CC)c1ccc(O)c(CN(CC)CC)c1 (stereo unspecified) = 92 % of control
C[Si](C)(C)C1C=CC=C1 = 100 % of control

Then this compound:
API: value(readout=T/C, system=CD2F1 mice, L1210 leukemia ip, survival T/C) for record CC(=O)[O][Sb]([CH3])([CH3])([CH3])[O]C(C)=O
110 % of control

====

Tested on: CD2F1 mice, L1210 leukemia ip, survival T/C
RUN_DESCRIPTION: NCI In Vivo Anticancer Drug Screen. Data for tumor model L1210 Leukemia (intraperitoneal) in CD2F1 (CDF1) mice
DETAILS: endpoint: mean survival time; dose: 12.5 mg/kg/injection; schedule: Q01DX009 (ip); vehicle: saline
Inconclusive results and toxic doses are left out. The calls were made as follows: active = survival T/C of 150% or more; inactive = T/C below 125% in these data.
Log the outcome using a class from active, inactive

Record lookup: outcome of this test for C[CH2][Sn]([CH2]C)([O]S(=O)(=O)CC12CCC(CC1=O)C2(C)C)[O]S(=O)(=O)CC12CCC(CC1=O)C2(C)C ?
inactive

So what was the verdict on [Cl][Pt]([Cl])([Cl])[Cl] in this test?
inactive

What was the test verdict on CC(=O)OCC1OC(n2cnc(N)nc2=O)C(OC(C)=O)C1OC(C)=O (stereo not drawn) ?
active

Record lookup: outcome of this test for COc1ccc2[nH]c(=O)c3c(c2c1)CCC(OC(=O)c1ccccc1)C3 (stereo not drawn) ?
inactive

Per the records of this test, what outcome belongs to CC(C)=NNCCO ?
inactive

====

Tested on: CD2F1 mice, L1210 leukemia ip, survival T/C
RUN_DESCRIPTION: NCI In Vivo Anticancer Drug Screen. Data for tumor model L1210 Leukemia (intraperitoneal) in CD2F1 (CDF1) mice
DETAILS: endpoint: mean survival time; dose: 100.0 mg/kg/injection; schedule: Q01DX009 (ip); vehicle: saline with Tween-80; higher = longer survival
Toxic doses and inconclusive results are not listed.
QUANTITY_MEASURED: T/C

Solved entries (count: 3):
CCCCCCCCCCCC1=NC(CO)(CO)CO1 = 96 % of control
Cc1ccc(S(=O)(=O)OC2CC3CC2C2C4C=CC(C4)C32)cc1 (stereo unspecified) = 93 % of control
c1ccc2c(c1)ccn2CCCCn1ccc2ccccc21 = 101 % of control

I'd like to know its T/C. The molecule in question is COc1ccc(/C=N/NC(=O)CNC(=O)Nc2cccc(C(F)(F)F)c2)cc1
88 % of control

So what's the measured T/C for this one? O=C1C2C(C(=O)N1c1ccc(F)c([N+](=O)[O-])c1)C1(Cl)C(Cl)=C(Cl)C2(Cl)C1(Cl)Cl (stereo unspecified)
116 % of control

Which value of T/C has been reported for C/C=C/C(OC(C)=O)OC(C)=O in the records?
97 % of control

====

Tested on: CD2F1 mice, L1210 leukemia ip, survival T/C
RUN_DESCRIPTION: NCI In Vivo Anticancer Drug Screen. Data for tumor model L1210 Leukemia (intraperitoneal) in CD2F1 (CDF1) mice
DETAILS: endpoint: mean survival time; dose: 20.0 mg/kg/injection; schedule: Q01DX001 (ip); vehicle: saline; higher = longer survival
Inconclusive results and toxic doses are left out.
QUANTITY_MEASURED: T/C

Record excerpt, results attached:
CC(=O)n1cc(CS)c(=O)[nH]c1=O = 105 % of control
COc1ccc(CCN2C(=O)C=CC2=O)cc1OC = 91 % of control
CC(=O)O.[Tl] = 112 % of control
CCN(C)c1cc2c3c(c1)CCCN3CCC2 = 102 % of control

Requested field: T/C. Item: O=C(O)CCC(=O)O
104 % of control

I am curious: what T/C value has been reported for C[N+](C)(C)Cc1ccc([N+](=O)[O-])cc1 ?
101 % of control

Reference source: PubChem BioAssay AID256
